meta.source: paper PMC10761851

# Substrate: O=C1CCC/C1=C\c1ccccc1
# assay: purified protein
# Type: biochemical, Bacillus subtilis
# condition.summary: 1.0 mM NADPH, 10 μM enzyme, PBS 100 mM, pH 7.5, 30 °C
parameter.measured: Km (mM)
The figure you give is taken to be in mM; do not add the unit.

**Q:** Request the reported Km associated with YqjM (Bacillus subtilis subsp. subtilis str. 168) (protein, ene-reductase, FMN enzyme) ARKLFTPITIKDMTLKNRIVMSPMCMYSSHEKDGKLTPFHMAHYISRAIGQVGLIIVEASAVNPQGRITDQDLGIWSDEHIEGFAKLTEQVKEQGSKIGIQLAHAGRKAELEGDIFAPSAIAFDEQSATPVEMSAEKVKETVQEFKQAAARAKEAGFDVIEIHAAHGYLIHEFLSPLSNHRTDEYGGSPENRYRFLREIIDEVKQVWDGPLFVRVSASDYTDKGLDIADHIGFAKWMKEQGVDLIDCSSGALVHADINVFPGYQVSFAEKIREQADMATGAVGMITDGSMAEEILQNGRADLIFIGRELLRDPFFARTAAKQLNTEIPAPVQYERGW
**A:** 8.35
